- testDescription: Plasma clearance in Sprague-Dawley rat at 2 mg/kg, po or 1 mg/kg, iv
- Type: ADME, organism-based
assayMetric: clearance
# number then unit; no other words

Some entries whose results are on file:
>  <molecule>
CCS(=O)(=O)N1CCC(c2c[nH]c3c(C(N)=O)cc(-c4ccccc4)cc23)CC1

>  <clearance>
16 mL/min/kg

$$$$
>  <molecule>
NCCS(=O)(=O)N1CCC(c2c[nH]c3c(C(N)=O)cc(-c4ccccc4)cc23)CC1

>  <clearance>
14 mL/min/kg

$$$$
>  <molecule>
CC1(C)CC(c2c[nH]c3c(C(N)=O)cc(-c4ccccc4)cc23)CCS1(=O)=O (stereo not drawn)

>  <clearance>
51.1 mL/min/kg

$$$$
>  <molecule>
CC1(C)C[C@H](c2c[nH]c3c(C(N)=O)cc(-c4ccc(F)cc4)cc23)CCS1(=O)=O

>  <clearance>
13.2 mL/min/kg

$$$$
>  <molecule>
NC(=O)c1cc(-c2ccc(F)cc2)cc2c(C3CCS(=O)(=O)CC3)c[nH]c12

>  <clearance>
23.5 mL/min/kg

$$$$
>  <molecule>
NC(=O)c1cc(-c2ccccc2)cc2c(C3CCS(=O)(=O)CC3)c[nH]c12

>  <clearance>
35 mL/min/kg

$$$$
>  <molecule>
NC(=O)c1cc(-c2ccccc2)cc2c(C3CCN(S(=O)(=O)CCCN4CCOCC4)CC3)c[nH]c12

>  <clearance>
8.9 mL/min/kg

$$$$

Continue with the molecule presented below.
Item under review: NC(=O)c1cc(-c2ccccc2)cc2c(C3CCN(S(=O)(=O)CCCN4CCCC4)CC3)c[nH]c12 . Reported clearance?
4 mL/min/kg

====

- experimentalTarget: Inhibitor of nuclear factor kappa-B kinase subunit beta (Homo sapiens)
- Sequence (O14920 whole entry, the tested form may be a part): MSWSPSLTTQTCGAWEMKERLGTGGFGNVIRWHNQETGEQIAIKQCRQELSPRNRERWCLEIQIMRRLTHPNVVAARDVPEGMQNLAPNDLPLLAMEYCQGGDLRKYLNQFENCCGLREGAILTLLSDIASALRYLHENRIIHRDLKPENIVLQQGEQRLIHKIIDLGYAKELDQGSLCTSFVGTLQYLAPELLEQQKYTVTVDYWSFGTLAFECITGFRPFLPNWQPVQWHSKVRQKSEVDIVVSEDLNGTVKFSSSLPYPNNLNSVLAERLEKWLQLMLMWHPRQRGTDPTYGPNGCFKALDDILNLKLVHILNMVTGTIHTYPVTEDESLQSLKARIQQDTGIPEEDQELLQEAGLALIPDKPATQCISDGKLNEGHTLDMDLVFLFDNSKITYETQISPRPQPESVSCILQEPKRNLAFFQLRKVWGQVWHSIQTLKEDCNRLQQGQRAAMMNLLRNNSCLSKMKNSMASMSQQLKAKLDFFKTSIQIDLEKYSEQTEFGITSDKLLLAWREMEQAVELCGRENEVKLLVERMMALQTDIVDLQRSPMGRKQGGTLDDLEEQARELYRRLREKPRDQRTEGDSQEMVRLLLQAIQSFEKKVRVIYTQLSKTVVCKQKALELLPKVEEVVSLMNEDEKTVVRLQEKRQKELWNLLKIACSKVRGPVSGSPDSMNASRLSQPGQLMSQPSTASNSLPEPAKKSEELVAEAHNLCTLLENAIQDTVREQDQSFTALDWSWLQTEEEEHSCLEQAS
- testDescription: Inhibition of IKKbeta in human CD14-positive monocytes assessed as reduction in LPS-stimulated TNFalpha secretion preincubated for 30 mins followed by LPS stimulation and measured after 24 hrs by Alpha screen assay
- Type: cell-based
assayMetric: IC50 (nM)
Report the figure in nM without appending any unit label.

Some entries whose results are on file:
>  <smilesText>
NC(=O)c1cc(-c2ccccc2)cc2c(C3CCS(=O)(=O)CC3)c[nH]c12

>  <observedValue>
80

$$$$
>  <smilesText>
NC(=O)c1cc(-c2ccccc2)cc2c(C3CCN(S(=O)(=O)CCCN4CCOCC4)CC3)c[nH]c12

>  <observedValue>
200

$$$$
>  <smilesText>
CN(C)CCS(=O)(=O)N1CCC(c2c[nH]c3c(C(N)=O)cc(-c4ccccc4)cc23)CC1

>  <observedValue>
500

$$$$

Continue with the compound presented below.
Item under review: CC1(C)C[C@H](c2c[nH]c3c(C(N)=O)cc(-c4ccc(F)cc4)cc23)CCS1(=O)=O . Reported IC50?
130

====

- testDescription: AUC in Sprague-Dawley rat at 2.1 mg/kg, po
- Assay type: ADME, organism-based
- statedConditions: in vivo
assayMetric: AUC (ng·h/mL)
Report the figure in ng·h/mL without appending any unit label.

Item under review: CN(C)CCS(=O)(=O)N1CCC(c2c[nH]c3c(C(N)=O)cc(-c4ccccc4)cc23)CC1 . Reported AUC?
2080

====

Measured Papp accompanies every entry in the list below.
- testDescription: Permeability of the compound by PAMPA
- Type: ADME
- statedConditions: read-out: permeability
Report the figure in ×10⁻⁶ cm/s without appending any unit label.

Some entries whose results are on file:
>  <smilesText>
NC(=O)c1cc(-c2ccccc2)cc2c(C3CCN(S(=O)(=O)CCCN4CCCCC4)CC3)c[nH]c12

>  <observedValue>
24

$$$$
>  <smilesText>
CC1(C)C[C@H](c2c[nH]c3c(C(N)=O)cc(-c4ccc(F)cc4)cc23)CCS1(=O)=O

>  <observedValue>
28.3

$$$$

Item under review: CCN(CC)CCCS(=O)(=O)N1CCC(c2c[nH]c3c(C(N)=O)cc(-c4ccccc4)cc23)CC1 . Reported Papp?
20

And for NC(=O)c1cc(-c2ccccc2)cc2c(C3CCN(S(=O)(=O)CCCN4CCCCCC4)CC3)c[nH]c12 ?
29

And for NC(=O)c1cc(-c2ccc(F)cc2)cc2c(C3CCS(=O)(=O)CC3)c[nH]c12 ?
28

And for CN(C)CCS(=O)(=O)N1CCC(c2c[nH]c3c(C(N)=O)cc(-c4ccccc4)cc23)CC1 ?
27

And for NC(=O)c1cc(-c2ccccc2)cc2c(C3CCN(S(=O)(=O)CCCN4CCOCC4)CC3)c[nH]c12 ?
31.8

And for NC(=O)c1cc(-c2ccccc2)cc2c(C3CCN(S(=O)(=O)CCN4CCOCC4)CC3)c[nH]c12 ?
31

====

- experimentalTarget: Inhibitor of nuclear factor kappa-B kinase subunit beta (Homo sapiens)
- testDescription: Inhibition of recombinant human C-terminal GST-tagged IKKbeta (1 to 737 residues) expressed in baculovirus expression system using GST-IkBalpha substrate measured after 30 mins by TR-FRET assay
assayMetric: pIC50
As a rule, pIC50 stands for the negative log10 of the concentration, concentration in M.

>  <compound>
NC(=O)c1cc(-c2ccccc2)cc2c([C@@H]3C[C@H]4CC[C@@H](C3)S4(=O)=O)c[nH]c12

>  <pIC50>
7.10

$$$$
>  <compound>
CC1(C)CC(c2c[nH]c3c(C(N)=O)cc(-c4ccccc4)cc23)NC1=O (stereo not drawn)

>  <pIC50>
7.70

$$$$
>  <compound>
NC(=O)c1cc(-c2ccccc2)cc2c(C3CCN(S(=O)(=O)CCCNC4CCCC4)CC3)c[nH]c12

>  <pIC50>
7.70

$$$$

Entry CN(C)CCS(=O)(=O)N1CCC(c2c[nH]c3c(C(N)=O)cc(-c4ccccc4)cc23)CC1 , system Inhibitor of nuclear factor kappa-B kinase subunit beta (Homo sapiens): what pIC50 was measured?
8.00

And for NC(=O)c1cc(-c2ccccc2)cc2c(C3CCC(=O)N3)c[nH]c12 (stereo not drawn) ?
7.40

And for CC1(C)C[C@H](c2c[nH]c3c(C(N)=O)cc(-c4ccc(F)cc4)cc23)CCS1(=O)=O ?
8.10

And for CS(=O)(=O)CCc1c[nH]c2c(C(N)=O)cc(-c3ccccc3)cc12 ?
7.20

And for NC(=O)c1cc(-c2ccccc2)cc2c(C3CCN(S(=O)(=O)CCCN4CCOCC4)CC3)c[nH]c12 ?
7.50

And for CC1(C)CC(=O)NC1c1c[nH]c2c(C(N)=O)cc(-c3ccccc3)cc12 (stereo not drawn) ?
6.70

And for NC(=O)c1cc(-c2ccccc2)cc2c(C3CCN(S(=O)(=O)CCCN4CCCC4)CC3)c[nH]c12 ?
8.00

And for NC(=O)c1cc(-c2ccccc2)cc2c(C3CCN(S(=O)(=O)CCCN4CCCCC4)CC3)c[nH]c12 ?
8.10

And for NC(=O)c1cc(-c2ccccc2)cc2c(C3CCS(=O)(=O)C3)c[nH]c12 (stereo not drawn) ?
7.00

And for NC(=O)c1cc(-c2ccc(F)cc2)cc2c(C3CCS(=O)(=O)CC3)c[nH]c12 ?
7.90

And for NC(=O)c1cc(-c2ccccc2)cc2c(C3CCC(=O)CC3)c[nH]c12 ?
6.30

And for CCN(CC)CCCS(=O)(=O)N1CCC(c2c[nH]c3c(C(N)=O)cc(-c4ccccc4)cc23)CC1 ?
7.80

And for NC(=O)c1cc(-c2ccccc2)cc2c(C3CCS(=O)(=O)CC3)c[nH]c12 ?
8.00

And for CC1(C)CC(c2c[nH]c3c(C(N)=O)cc(-c4ccccc4)cc23)CCS1(=O)=O (stereo not drawn) ?
8.10

And for NC(=O)c1cc(-c2ccccc2)cc2c([C@H]3C[C@H]4CC[C@@H](C3)S4(=O)=O)c[nH]c12 ?
7.40
